A collection of compounds and their measured glass transition temperature
Experimental readout: glass transition temperature (°C)

>>> measured("*c1ccc(Oc2ccc(-c3c(-c4ccccc4)nc4ccc(Oc5ccc6nc(-c7ccccc7)c(*)c(-c7ccccc7)c6c5)cc4c3-c3ccccc3)cc2)cc1 (repeat unit)")
252.50
>>> measured("*CC(*)C(=O)OC(C)C (repeat unit)")
-5.00
>>> measured("*C(=O)OCCCCCCCCOC(=O)c1ccc(NC(=O)c2ccc(N3C(=O)c4ccc(*)cc4C3=O)cc2)cc1 (repeat unit)")
105.00
>>> measured("*CCCC(CC)CCNC(=O)c1ccc(C(=O)N*)cc1 (repeat unit)")
135.00
>>> measured("*c1ccc(OC(=O)c2cc(Cl)cc(C(=O)Oc3ccc(C4(*)OC(=O)c5ccccc54)cc3)c2)cc1 (repeat unit)")
313.00
>>> measured("*O[Si](*)(C)CCCCCOc1ccc(/C=C/c2ccc(OC)cc2)cc1 (repeat unit)")
52.00
>>> measured("*OC(COCCCC)COC(*)=O (repeat unit)")
-22.00
>>> measured("*Cc1ccccc1[Si](*)(C)C (repeat unit)")
48.00
>>> measured("*Oc1cccc(C(=O)c2ccc(*)cc2)c1 (repeat unit)")
137.00
